Assay: BET inhibitor-based combinations targeting novel dependencies in MECOM-rearranged (r) AML: OCI-AML3 cell line (AID 2202232); note: nearly all actives have a fitted effect of over 35% in size
Conditions: CellTiter-Glo luminescence, 48 h; OCI-AML3 viability; series mostly up to 46 µM
Inconclusive results are not listed. Activity calls are given as the source filed them. Calls come from the whole dose curve; as a rule, active = well fitted inhibition curve with a large enough effect; inconclusive = small, poorly fitted or top-dose-only effect; inactive = no such curve, though single readings can be large or run the other way.
// allowed return values: active, inactive

Would you please look over these solved cases?
C=C1C(=O)O[C@@H]2[C@H]3O[C@]3(C)CC/C=C(\C)CC[C@@H]12
active
Fc1cccc(-n2cnc3c(NCc4nc5c(F)c(F)ccc5[nH]4)nc(N4CCOCC4)nc32)c1
active
C=C1C(=O)O[C@@H]2[C@H]3C(C)=CC[C@@]34O[C@@]4(C)CC[C@@H]12
active
CC(=O)N[C@H]1CSSC[C@@H](C(N)=O)NC(=O)[C@H](C(C)C)NC(=O)[C@H](C)NC(=O)[C@H](Cc2cnc[nH]2)NC1=O
inactive
CC(=O)O/N=C1\C(=O)N(Cc2cc(Cl)ccc2Cl)c2ccc(Cl)cc21
active

What did the test return for O=C(O)C1(Cc2cccc(Nc3nccs3)n2)CCC(Oc2cccc(Cl)c2F)CC1 (stereo unspecified) ?
active

What did the test return for CN1C/C=C/CCOc2cccc(c2)-c2ccnc(n2)Nc2cccc(c2)C1 ?
active

What did the test return for CCOCOC[C@H](C[C@H](C)C(=O)NO)NC(=O)c1ccc(Oc2ccccc2)cc1 ?
active

What did the test return for CC(C)(O)C1CCC(Nc2ccc3ncc(-c4cccc(C(F)(F)F)c4)n3n2)CC1 (stereo unspecified) ?
active

What did the test return for C=CCN(/C=C1\C(=O)O[C@@H](COC)[C@]2(C)C1=C(O)C(=O)C1=C2[C@@H](OC(C)=O)C[C@]2(C)C(=O)CC[C@H]12)CC=C ?
inactive

What did the test return for CCCC1(CCC)CCC2(CCN(CCCN(CC)CC)C2)CC1 ?
active

What did the test return for CC1(N)CCN(c2cnc(-c3cccc(Cl)c3Cl)c(N)n2)CC1 ?
inactive

What did the test return for Cn1cc(-c2ccc(-c3cncc(Cl)c3N3CCC4(CCNC4=O)CC3)cc2)cn1 ?
active
